Test: Inhibition of carnitine palmitoyltransferase in hepatocytes from fasted rat assessed as oxidation of [U-14C]palmitate and production of acetoacetate and BHB
Type: cell-based
Conditions: Hepatocyte
recorded.endpoint: pIC50
By convention, pIC50 is the negative base-10 log of a molar concentration.

Consider the molecule O=C([O-])C1(CCCCCc2ccc(Cl)cc2)CO1.[Na+] (racemic) and give its measured pIC50.
5.30

====

Target: Carnitine O-palmitoyltransferase 2, mitochondrial (Rattus norvegicus, UniProt P18886)
Sequence (P18886 whole entry): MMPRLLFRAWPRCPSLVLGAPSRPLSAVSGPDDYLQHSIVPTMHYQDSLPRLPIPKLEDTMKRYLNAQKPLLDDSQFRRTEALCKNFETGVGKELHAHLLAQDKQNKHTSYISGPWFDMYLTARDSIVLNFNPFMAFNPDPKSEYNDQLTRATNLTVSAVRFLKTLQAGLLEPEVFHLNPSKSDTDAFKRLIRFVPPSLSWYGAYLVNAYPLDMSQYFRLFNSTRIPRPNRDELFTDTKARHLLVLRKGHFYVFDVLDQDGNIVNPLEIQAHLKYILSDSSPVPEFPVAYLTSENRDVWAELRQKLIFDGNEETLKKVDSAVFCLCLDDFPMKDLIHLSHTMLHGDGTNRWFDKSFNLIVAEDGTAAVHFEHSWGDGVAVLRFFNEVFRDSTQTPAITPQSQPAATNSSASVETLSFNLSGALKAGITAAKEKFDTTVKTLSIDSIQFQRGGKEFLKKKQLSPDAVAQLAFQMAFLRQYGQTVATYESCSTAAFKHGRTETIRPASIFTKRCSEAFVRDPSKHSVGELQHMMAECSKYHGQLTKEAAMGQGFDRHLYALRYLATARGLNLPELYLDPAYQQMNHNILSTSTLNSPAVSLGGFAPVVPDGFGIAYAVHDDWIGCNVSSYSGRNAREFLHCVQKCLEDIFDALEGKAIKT
Assay: Inhibition of rat CPT2
recorded.endpoint: log10(IC50) (log10 of the value in µM)
Heads up, the numbers here are log10 of IC50 in µM units.

Recorded log10(IC50), per entry:
[[record]]
smiles_str = "C[N+](C)(C)C[C@H](N)CC(=O)[O-]"
recorded_endpoint = "log10(IC50)"
recorded_value = 0.71

[[record]]
smiles_str = "COc1ccc(C)cc1S(=O)(=O)N1CCCc2ccc(C(=O)Nc3ccc(CC(=O)O)cc3)cc21"
recorded_endpoint = "log10(IC50)"
recorded_value = 1.22


Consider the molecule O=C(COc1ccccc1)N1CCCC[C@@H]1c1nc(-c2ccccn2)cs1 and give its measured log10(IC50).
1.49

Please answer likewise for COc1ccc(Cl)cc1S(=O)(=O)N1CCc2ccc(C(=O)Nc3ccc(C(=O)O)cc3)cc21
0.51

Please answer likewise for CCCCCCCCCCCCCCNC(=O)N[C@H](CC(=O)[O-])C[N+](C)(C)C
-0.42
